These measurements were taken from patent US9187424B1.

- assayed_system: Human MGAT-2 (Homo sapiens (Human), UniProt Q3SYC2)
- Sequence (Q3SYC2 whole entry): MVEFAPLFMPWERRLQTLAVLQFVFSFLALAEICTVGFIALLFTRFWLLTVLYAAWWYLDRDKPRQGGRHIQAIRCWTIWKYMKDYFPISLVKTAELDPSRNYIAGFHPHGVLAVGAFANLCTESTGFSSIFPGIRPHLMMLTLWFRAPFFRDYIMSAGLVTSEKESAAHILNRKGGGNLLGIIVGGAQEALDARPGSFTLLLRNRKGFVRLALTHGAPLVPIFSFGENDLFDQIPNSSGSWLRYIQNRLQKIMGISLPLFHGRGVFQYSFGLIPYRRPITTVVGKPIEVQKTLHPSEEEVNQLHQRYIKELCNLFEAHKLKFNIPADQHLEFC
- assay_procedure: MGAT LCMS Assay (human MGAT-2);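 further: diolein product quantified by LC/MS with positive APCI, expressed as peak area ratio versus an internal standard, and this ratio used to derive IC50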
- Type: biochemical
- measurement_parameters: human MGAT-2 membranes expressed in Sf9 cells; 2-oleoylglycerol and oleoyl-Coenzyme A; read-out: h-MGAT2 IC50 (nM) LCMS Assay
measurement_type: IC50 (nM)

* CCCCCC#CC1(C(F)(F)F)CC(c2ccc(C)cc2)=C(c2cn[nH]n2)C(=O)N1 (stereo not shown) | 6
* Cc1ccc(C2=C(c3nn[nH]n3)C(=O)NC(c3ccc(C#CC4CCCCC4)cc3)(C(F)(F)F)C2)cc1 (stereo not shown) | 178
* COc1ccc(C2=C(c3nn[nH]n3)C(=O)NC(c3ccc(OCCCCCC(F)(F)F)cc3)(C(F)(F)F)C2)cc1 (stereo not shown) | 51

(A) COc1cccc(C2=C(c3nn[nH]n3)C(=O)NC(c3ccc(OCCCC(F)(F)F)cc3)(C(F)(F)F)C2)c1 (stereo not shown)
(B) COc1ccc(C2=C[C@@](c3ccc(OCCCC(F)(F)F)cc3)(C(F)(F)F)NC(=O)C2(F)C#N)cc1 (stereo in doubt) [Example 15-3]
(C) COc1cc(C(=O)NC2=C(c3ccc(C)cc3)CC(c3ccc(OCCCC(F)(F)F)cc3)(C(F)(F)F)NC2=O)on1 (stereo not shown)
(D) O=C(Nc1cccnc1)C1=C(c2ccc(OC(F)F)cc2)CC(c2ccc(OCCCC(F)(F)F)cc2)(C(F)(F)F)NC1=O (stereo not shown)
Please put the entries in order of rising IC50. Note for the reader: the ranking is given by listing the labels in the order requested.
D, C, B, A

* * *

- assayed_system: UniProt:Q3SYC2
- assay_procedure: MGAT LCMS Assay (human MGAT-2)
- Format: biochemical
- measurement_parameters: human MGAT-2 membranes expressed in Sf9 cells; 2-oleoylglycerol and oleoyl-Coenzyme A; read-out: h-MGAT2 IC50 (nM) LCMS Assay
measurement_type: IC50 (nM)

- COc1ccc(C(=O)NC2=C(c3ccc(C)cc3)CC(c3ccc(OCCCC(F)(F)F)cc3)(C(F)(F)F)NC2=O)nn1 (stereo not shown) [Example 232]: 6
- COc1ccc(C2=C(c3nn[nH]n3)C(=O)NC(C#CCCc3ccccc3)(C(F)(F)F)C2)cc1 (stereo not shown) [Example 294]: 84
- COc1ccc(C2=C(c3nn[nH]n3)C(=O)NC(c3ccc(OCCCC(F)(F)F)cc3)(C(F)(F)F)C2)cc1 (stereo not shown) [Example 244]: 61
- COCc1ccc(C2=C(c3nn[nH]n3)C(=O)NC(c3ccc(OCCCC(F)(F)F)cc3)(C(F)(F)F)C2)cc1 (stereo not shown) [Example 202]: 89
- Cc1ccc(C2=C(NC(=O)c3cc(-c4cccc(F)c4)no3)C(=O)NC(c3ccc(OCCCC(F)(F)F)cc3)(C(F)(F)F)C2)cc1 (stereo not shown) [Example 190]: 155

(a) COc1ccc(NC(=O)C2=C(c3ccc(C)cc3C)CC(c3ccc(OCCCC(F)(F)F)cc3)(C(F)(F)F)NC2=O)cc1 (stereo not shown) [Example 148]
(b) CC(=O)C(=O)NC1=C(c2ccc(C)cc2)CC(c2ccc(OCCCC(F)(F)F)cc2)(C(F)(F)F)NC1=O (stereo not shown) [Example 250]
IC50 comparison. Which is larger, a or b ? Indicate which entry you chose by stating its label.
b
(b: 243 nM, a: 9 nM)
